- System: 953936-095-R-J2-PDC spheroids with HUVEC/MSC, viability
- ASSAY PROCEDURE: Anticancer human tumor 953936-095-R-J2-PDC patient-derived cervical squamous cell carcinoma cell line growth inhibition [PI3K]; active = viability on the fitted dose curve at most 10% of control; inactive = the rest
- COND: second compound 0.1 µM; first compound 10 µM
A correct response names exactly one class from active, inactive

Which outcome did this test record for the compound CC1(C)CCC(Nc2ncc(C(F)(F)F)c(-c3c[nH]c4c(P(C)(C)=O)c(C#N)ccc34)n2)CN1 (stereo not given) + COc1c(OCCCN2CCOCC2)ccc2c3n(c(=NC(=O)c4cnc(N)nc4)nc12)CCN3 ?
active

Next entry: C#Cc1c(F)ccc2cc(O)cc(-c3ncc4c(N5CC6CCC(C5)N6)nc(OCC56CCCN5CC(F)C6)nc4c3F)c12 (stereo not given) + Cc1nc(NC(=O)N2CCCC2C(N)=O)sc1-c1ccnc(C(C)(C)C(F)(F)F)c1
inactive

Next entry: CC(Cn1ccc(-c2ccc(C#N)c(Cl)c2)n1)NC(=O)c1cc(C(C)O)[nH]n1 (stereo not given) + CC(Nc1ccc2c(c1)OCCn1cc(N3C(=O)OCC3C(F)F)nc1-2)C(N)=O
inactive

Next entry: CC1(C)CCC(CN2CCN(c3ccc(C(=O)NS(=O)(=O)c4ccc(NCC5CCOCC5)c([N+](=O)[O-])c4)c(Oc4cnc5[nH]ccc5c4)c3)CC2)=C(c2ccc(Cl)cc2)C1 + COc1c(OCCCN2CCOCC2)ccc2c3n(c(=NC(=O)c4cnc(N)nc4)nc12)CCN3
inactive

Next entry: CCCS(=O)(=O)Nc1ccc(F)c(C(=O)c2c[nH]c3ncc(-c4ccc(Cl)cc4)cc23)c1F + CC(Nc1ccc2c(c1)OCCn1cc(N3C(=O)OCC3C(F)F)nc1-2)C(N)=O
active

Next entry: CC1(C)CCC(CN2CCN(c3ccc(C(=O)NS(=O)(=O)c4ccc(NCC5CCOCC5)c([N+](=O)[O-])c4)c(Oc4cnc5[nH]ccc5c4)c3)CC2)=C(c2ccc(Cl)cc2)C1 + CC(Nc1ncnc2nc[nH]c12)c1cc2cccc(Cl)c2c(=O)n1-c1ccccc1
inactive

Next entry: CC(C)NCC(C(=O)N1CCN(c2ncnc3c2C(C)CC3O)CC1)c1ccc(Cl)cc1 (stereo not given) + CC(Nc1ncnc2nc[nH]c12)c1cc2cccc(Cl)c2c(=O)n1-c1ccccc1
inactive

Next entry: CCCS(=O)(=O)Nc1ccc(F)c(C(=O)c2c[nH]c3ncc(-c4ccc(Cl)cc4)cc23)c1F + CC(Nc1ncnc2nc[nH]c12)c1cc2cccc(Cl)c2c(=O)n1-c1ccccc1
active

Next entry: CC1(C)CCC(Nc2ncc(C(F)(F)F)c(-c3c[nH]c4c(P(C)(C)=O)c(C#N)ccc34)n2)CN1 (stereo not given) + CC(Nc1ncnc2nc[nH]c12)c1cc2cccc(Cl)c2c(=O)n1-c1ccccc1
active

Next entry: Cn1nccc1Nc1nccc(-c2ccn(C(CO)c3ccc(Cl)c(F)c3)c(=O)c2)n1 (stereo not given) + Cc1nc(NC(=O)N2CCCC2C(N)=O)sc1-c1ccnc(C(C)(C)C(F)(F)F)c1
inactive

###

- Tested on: 953936-095-R-J2-PDC spheroids with HUVEC/MSC, viability
- ASSAY PROCEDURE: Anticancer human tumor 953936-095-R-J2-PDC cell line growth inhibition [PI3K];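 note: spheroids exposed to compounds for seven days before read-out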
- COND: second compound 10 µM; first compound 0.001 µM; stronger effect = lower value
PROPERTY MEASURED: viability, T/C (%)
Use % as the unit, but write only the number.

Which measured viability, T/C value corresponds to Cn1ncnc1[C@H]1c2n[nH]c(=O)c3cc(F)cc(c23)N[C@@H]1c1ccc(F)cc1 + Cc1nc(NC(=O)N2CCCC2C(N)=O)sc1-c1ccnc(C(C)(C)C(F)(F)F)c1 ?
10.4

Next entry: CC(C)n1nc(-c2ccc3oc(N)nc3c2)c2c(N)ncnc21 + Cc1nc(NC(=O)N2CCCC2C(N)=O)sc1-c1ccnc(C(C)(C)C(F)(F)F)c1
10.8

Next entry: Cn1ncnc1[C@H]1c2n[nH]c(=O)c3cc(F)cc(c23)N[C@@H]1c1ccc(F)cc1 + CC(Nc1ncnc2nc[nH]c12)c1cc2cccc(Cl)c2c(=O)n1-c1ccccc1
57.8

Next entry: CC(=O)c1c(C)c2cnc(Nc3ccc(N4CCNCC4)cn3)nc2n(C2CCCC2)c1=O + Cc1nc(NC(=O)N2CCCC2C(N)=O)sc1-c1ccnc(C(C)(C)C(F)(F)F)c1
10.9

Next entry: CC(=O)c1c(C)c2cnc(Nc3ccc(N4CCNCC4)cn3)nc2n(C2CCCC2)c1=O + CC(Nc1ncnc2nc[nH]c12)c1cc2cccc(Cl)c2c(=O)n1-c1ccccc1
68.6

Next entry: CC(C)n1nc(-c2ccc3oc(N)nc3c2)c2c(N)ncnc21 + CC(Nc1ncnc2nc[nH]c12)c1cc2cccc(Cl)c2c(=O)n1-c1ccccc1
57.3

###

- System: 953936-095-R-J2-PDC spheroids with HUVEC/MSC, viability
- ASSAY PROCEDURE: Anticancer human tumor 953936-095-R-J2-PDC cell line growth inhibition [PI3K];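 note: spheroids exposed to compounds for seven days before read-out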
- COND: second compound 0.00316 µM; first compound 0.1 µM; stronger effect = lower value
Give viability, T/C for every item shown.
Use % as the unit, but write only the number.

Which measured viability, T/C value corresponds to C[C@@H](NC(=O)c1ncnc(N)c1Cl)c1ncc(C(=O)Nc2cc(C(F)(F)F)c(Cl)cn2)s1 + CC(Nc1ccc2c(c1)OCCn1cc(N3C(=O)OCC3C(F)F)nc1-2)C(N)=O ?
103

Next entry: Cn1ncnc1[C@H]1c2n[nH]c(=O)c3cc(F)cc(c23)N[C@@H]1c1ccc(F)cc1 + COc1c(OCCCN2CCOCC2)ccc2c3n(c(=NC(=O)c4cnc(N)nc4)nc12)CCN3
78.5

Next entry: CC(Cn1ccc(-c2ccc(C#N)c(Cl)c2)n1)NC(=O)c1cc(C(C)O)[nH]n1 (stereo unspecified) + CC(Nc1ccc2c(c1)OCCn1cc(N3C(=O)OCC3C(F)F)nc1-2)C(N)=O
92.7

Next entry: CCN1CCN(Cc2ccc(Nc3ncc(F)c(-c4cc(F)c5nc(C)n(C(C)C)c5c4)n3)nc2)CC1 + CC(Nc1ccc2c(c1)OCCn1cc(N3C(=O)OCC3C(F)F)nc1-2)C(N)=O
96.6

Next entry: Cn1ncnc1[C@H]1c2n[nH]c(=O)c3cc(F)cc(c23)N[C@@H]1c1ccc(F)cc1 + CC(Nc1ccc2c(c1)OCCn1cc(N3C(=O)OCC3C(F)F)nc1-2)C(N)=O
91.7

Next entry: CC(C)NCC(C(=O)N1CCN(c2ncnc3c2C(C)CC3O)CC1)c1ccc(Cl)cc1 (stereo unspecified) + CC(Nc1ccc2c(c1)OCCn1cc(N3C(=O)OCC3C(F)F)nc1-2)C(N)=O
88.2

Next entry: Cn1nccc1Nc1nccc(-c2ccn(C(CO)c3ccc(Cl)c(F)c3)c(=O)c2)n1 (stereo unspecified) + COc1c(OCCCN2CCOCC2)ccc2c3n(c(=NC(=O)c4cnc(N)nc4)nc12)CCN3
78.6

Next entry: Cn1nccc1Nc1nccc(-c2ccn(C(CO)c3ccc(Cl)c(F)c3)c(=O)c2)n1 (stereo unspecified) + CC(Nc1ccc2c(c1)OCCn1cc(N3C(=O)OCC3C(F)F)nc1-2)C(N)=O
87

Next entry: CC1(C)CCC(Nc2ncc(C(F)(F)F)c(-c3c[nH]c4c(P(C)(C)=O)c(C#N)ccc34)n2)CN1 (stereo unspecified) + CC(Nc1ccc2c(c1)OCCn1cc(N3C(=O)OCC3C(F)F)nc1-2)C(N)=O
44.8

Next entry: C[C@@H](NC(=O)c1ncnc(N)c1Cl)c1ncc(C(=O)Nc2cc(C(F)(F)F)c(Cl)cn2)s1 + COc1c(OCCCN2CCOCC2)ccc2c3n(c(=NC(=O)c4cnc(N)nc4)nc12)CCN3
91.8

Next entry: Cn1ncc(Cl)c1-c1cc(C(=O)NC(CN)Cc2cccc(F)c2)sc1Cl (stereo unspecified) + COc1c(OCCCN2CCOCC2)ccc2c3n(c(=NC(=O)c4cnc(N)nc4)nc12)CCN3
85.4

###

- System: 953936-095-R-J2-PDC spheroids with HUVEC/MSC, viability
- ASSAY PROCEDURE: Anticancer human tumor 953936-095-R-J2-PDC cell line growth inhibition [PI3K];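 note: spheroids exposed to compounds for seven days before read-out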
- COND: second compound 0.00316 µM; first compound 0.1 µM; stronger effect = lower value
- Text: Combinatorial screen of targeted agents with the PI3K inhibitors inavolisib, alpelisib, duvelisib, and copanlisib in multi-cell type tumor spheroids A high-throughput screen of multi-cell type tumor spheroids was designed to identify active combinations of targeted small molecules and PI3K pathway inhibitors. […] Compounds. […] If the clinical Cmax for an agent had not been determined, the highest concentration tested was 10 microM. […]
In plain terms, low viability, T/C, meaning strictly below 90%, gives rule met, and everything else gives rule not met.

Confirm or reject: viability, T/C of Cn1ncc(Cl)c1-c1cc(C(=O)NC(CN)Cc2cccc(F)c2)sc1Cl (stereo not given) + CC(Nc1ccc2c(c1)OCCn1cc(N3C(=O)OCC3C(F)F)nc1-2)C(N)=O lies strictly below 90%
rule met

Next entry: CC(=O)c1c(C)c2cnc(Nc3ccc(N4CCNCC4)cn3)nc2n(C2CCCC2)c1=O + CC(Nc1ccc2c(c1)OCCn1cc(N3C(=O)OCC3C(F)F)nc1-2)C(N)=O
rule not met

Next entry: CCCS(=O)(=O)Nc1ccc(F)c(C(=O)c2c[nH]c3ncc(-c4ccc(Cl)cc4)cc23)c1F + COc1c(OCCCN2CCOCC2)ccc2c3n(c(=NC(=O)c4cnc(N)nc4)nc12)CCN3
rule not met

Next entry: CNC(=O)c1ccc(N2C(=S)N(c3ccc(C#N)c(C(F)(F)F)c3)C(=O)C2(C)C)cc1F + COc1c(OCCCN2CCOCC2)ccc2c3n(c(=NC(=O)c4cnc(N)nc4)nc12)CCN3
rule met
